In this section we review reported Emax values for a set of compounds.
Biological target: F508delCFTR (Homo sapiens, UniProt P13569, DEL508-508)
Construct: expressed in transfected cells; host or cells: CFBE41o- human lung-derived epithelial cells (CFBE4lo-F508delCFTR-HRP), doxycycline-inducible
Sequence (P13569 with tags, fused parts or gaps DEL508-508): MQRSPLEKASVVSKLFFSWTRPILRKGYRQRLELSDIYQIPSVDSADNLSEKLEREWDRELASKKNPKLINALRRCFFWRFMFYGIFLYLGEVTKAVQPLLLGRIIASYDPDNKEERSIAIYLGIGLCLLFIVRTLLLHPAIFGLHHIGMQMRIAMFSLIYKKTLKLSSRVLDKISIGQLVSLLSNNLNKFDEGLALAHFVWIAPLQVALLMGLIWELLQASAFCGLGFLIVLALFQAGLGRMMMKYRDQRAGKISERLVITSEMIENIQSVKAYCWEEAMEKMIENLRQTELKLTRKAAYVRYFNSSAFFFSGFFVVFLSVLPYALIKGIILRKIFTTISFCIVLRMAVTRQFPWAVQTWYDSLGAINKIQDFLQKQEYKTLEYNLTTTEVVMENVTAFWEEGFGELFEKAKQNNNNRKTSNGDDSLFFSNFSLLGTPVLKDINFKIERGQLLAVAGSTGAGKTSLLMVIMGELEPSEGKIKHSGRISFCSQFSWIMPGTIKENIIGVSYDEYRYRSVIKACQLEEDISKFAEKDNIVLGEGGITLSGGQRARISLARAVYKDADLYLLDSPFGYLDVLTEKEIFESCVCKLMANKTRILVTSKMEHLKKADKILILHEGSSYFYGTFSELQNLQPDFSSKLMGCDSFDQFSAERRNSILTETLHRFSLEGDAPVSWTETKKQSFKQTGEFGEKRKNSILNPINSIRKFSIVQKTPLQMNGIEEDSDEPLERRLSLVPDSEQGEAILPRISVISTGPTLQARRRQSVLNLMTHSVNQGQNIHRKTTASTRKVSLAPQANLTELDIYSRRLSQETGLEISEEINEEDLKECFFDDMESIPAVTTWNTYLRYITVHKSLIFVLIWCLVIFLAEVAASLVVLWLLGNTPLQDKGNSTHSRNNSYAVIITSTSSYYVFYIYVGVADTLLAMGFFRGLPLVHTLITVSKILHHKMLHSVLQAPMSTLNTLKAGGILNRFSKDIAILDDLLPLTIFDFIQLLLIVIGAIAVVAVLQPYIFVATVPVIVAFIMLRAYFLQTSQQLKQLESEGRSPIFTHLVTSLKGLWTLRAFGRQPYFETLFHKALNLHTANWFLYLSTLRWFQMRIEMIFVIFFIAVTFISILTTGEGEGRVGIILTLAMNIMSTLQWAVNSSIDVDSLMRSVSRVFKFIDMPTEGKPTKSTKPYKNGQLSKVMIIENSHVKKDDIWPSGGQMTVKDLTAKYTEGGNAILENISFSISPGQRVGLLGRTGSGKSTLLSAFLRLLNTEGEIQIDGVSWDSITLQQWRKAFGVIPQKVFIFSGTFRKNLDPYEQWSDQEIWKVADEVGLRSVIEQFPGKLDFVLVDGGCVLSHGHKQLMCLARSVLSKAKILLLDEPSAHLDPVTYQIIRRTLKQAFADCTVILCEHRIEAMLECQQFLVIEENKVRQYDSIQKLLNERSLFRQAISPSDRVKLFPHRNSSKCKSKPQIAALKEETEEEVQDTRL
Assay: Cell Surface Expression-Horse Radish Peroxidase (CSE-HRP) Assay;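 as to Maximum % activity (without co-corrector): percent of the 2 µM on-plate positive control corrector response above DMSO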
Assay type: cell-based
Details: CSE-HRP; without co-corrector; maximum at any tested concentration, normalized to on-plate positive control; read-out: Maximum % activity (without co-corrector)

compound="COc1ccc(C(F)(F)F)cc1CN[C@H]1[C@H](C(C)(C)C)[C@@H](C(=O)O)N(C(=O)C2CCCCC2)[C@H]1c1ccccc1F [II-260]" meas_value="100 to 200%"
compound="COc1cc(C(F)(F)F)ccc1CN[C@H]1[C@H](C(C)(C)C)[C@@H](C(=O)O)N(C(=O)c2ccccc2)[C@H]1c1ccccc1 [II-152]" meas_value="< 100%"

## Input Fill in reported Emax for this entry: COc1ccc(C(C)(C)C)cc1CN[C@H]1[C@H](C(C)(C)C)[C@@H](C(=O)O)N(C(=O)[C@H]2OCC[C@H]2C)[C@H]1c1ccccc1 (relative stereo) [II-269]
## Output > 200%

## Input Give a short answer stating reported Emax for COc1ccc(C(C)(C)C)cc1CN[C@H]1[C@H](C(C)(C)C)[C@@H](C(=O)O)N(C(=O)Cc2cc(C)sc2C)[C@H]1c1ccccc1 [II-208] .
## Output > 200%

## Input Give reported Emax value for COc1ncc(F)cc1CN[C@@H]1[C@@H](C(C)(C)C)[C@H](C(=O)O)N(C(=O)C2CCCCC2)[C@@H]1c1ccccc1 (racemic) [II-30]
## Output 100 to 200%

## Input # return recorded Emax for entry COc1cc(C(F)(F)F)ccc1CN[C@H]1[C@H](C2(C)CC2)[C@@H](C(=O)O)N(C(=O)C2CCCCC2)[C@H]1c1ccccc1 [II-303]
## Output < 100%

---

Target: F508delCFTR (Homo sapiens, UniProt P13569, DEL508-508)
Construct: expressed in transfected cells; host or cells: CFBE41o- human lung-derived epithelial cells (CFBE4lo-F508delCFTR-HRP), doxycycline-inducible
Assay: Cell Surface Expression-Horse Radish Peroxidase (CSE-HRP) Assay
Type: cell-based
Conditions: test compound without co-corrector; read-out: EC50 (without co-corrector)
assay_metric: EC50

// below: answered compounds
compound="COc1nc(C(C)(C)C)ccc1CN[C@H]1[C@H](C(C)(C)C)[C@@H](C(=O)O)N(C(=O)[C@@H]2OC[C@@H]3CCC[C@@H]32)[C@H]1c1ccccc1 (relative stereo)" meas_value="< 1 µM"
compound="COc1ccc(C(C)(C)C)cc1CN[C@H]1[C@H](C(C)(C)C)[C@@H](C(=O)O)N(C(=O)C2CCCCC2C(=O)N2CCC2)[C@H]1c1ccccc1 (stereo partly drawn)" meas_value="1 to 10 µM"
compound="COc1cccc([C@@H]2[C@H](NCc3ccccc3OC(F)F)[C@@H](C(C)(C)C)[C@H](C(=O)O)N2C(=O)C2CCCCC2)n1 (racemic)" meas_value="1 to 10 µM"
compound=COc1cc(C(F)(F)F)ccc1CN[C@H]1[C@H](C(C)(C)C)[C@@H](C(=O)O)N(C(=O)c2cccnc2)[C@H]1c1ccccc1 meas_value="1 to 10 µM"

## Input Read off the recorded EC50 for "COc1ccc(C23CC(C2)C3)cc1CN[C@H]1[C@H](C(C)(C)C)[C@@H](C(=O)O)N(C(=O)C2CCCCC2)[C@H]1c1ccccc1"
## Output < 1 µM

## Input Write down EC50 measured for item COc1ccc(Cl)cc1CN[C@@H]1[C@@H](C2CC2)[C@H](C(=O)O)N(C(=O)N(C(C)C)C(C)C)[C@@H]1c1ccccc1 (racemic)
## Output > 10 µM

---

Target: F508delCFTR (Homo sapiens, UniProt P13569, DEL508-508)
Construct: expressed in transfected cells; host or cells: CFBE41o- human lung-derived epithelial cells (CFBE4lo-F508delCFTR-HRP), doxycycline-inducible
Experiment: Cell Surface Expression-Horse Radish Peroxidase (CSE-HRP) Assay;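 as to Maximum % activity (without co-corrector): percent of the 2 µM on-plate positive control corrector response above DMSO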
Assay type: cell-based
Conditions: test compound without co-corrector; maximum at any tested concentration, normalized to on-plate positive control; read-out: Maximum % activity (without co-corrector)
Experimental: Cell Surface Expression-Horse Radish Peroxidase (CSE-HRP) Assay The development was achieved by expressing the F508delCFTR mutation along with a horseradish peroxidase (HRP) in the fourth exofacial loop, and then measuring the HRP activity using luminescence readout from these cells, CFBE4lo-F508delCFTR-HRP, that were incubated overnight with the test corrector compounds, either without or with the co-corrector. […] The raw counts from the experiment were analyzed using Accelrys® Assay Explorer v3.3. […]
Listed below: Emax values for each entry.

compound="COc1ccc(C(F)(F)F)cc1CN[C@H]1[C@H](C(C)(C)C)[C@@H](C(=O)O)N(C(=O)C2CCCCC2)[C@H]1c1cccnc1OC [II-573]" assay_metric=Emax meas_value="100 to 200%"
compound="COc1ccc(C(C)(C)C)cc1CN[C@@H]1[C@@H](C(C)(C)C)[C@H](C(=O)O)N(C(=O)C2CCCCC2)[C@@H]1c1ccccc1 (racemic) [III-107]" assay_metric=Emax meas_value="> 200%"
compound="COc1ncc(C2CCC2)cc1CN[C@H]1[C@H](C(C)(C)C)[C@@H](C(=O)O)N(C(=O)C2CCCC(C(F)(F)F)C2)[C@H]1c1ccccc1 (stereo partly drawn) [III-209]" assay_metric=Emax meas_value="100 to 200%"
compound="COc1ccc(C(C)(C)C)cc1CN[C@H]1[C@H](C(C)(C)C)[C@@H](C(=O)O)N(C(=O)[C@@H](OC)c2ccc(F)c(F)c2)[C@H]1c1ccccc1 [II-396]" assay_metric=Emax meas_value="100 to 200%"
compound="CC(C)(C)[C@H]1[C@H](NCc2ccc3c(c2)CCCO3)[C@H](c2ccccc2)N(C(=O)C2CCCCC2)[C@@H]1C(=O)O [III-120]" assay_metric=Emax meas_value="< 100%"
compound="CC(C)(C)[C@H]1[C@H](NCc2cc3c(cc2Cl)OCO3)[C@H](c2ccccc2)N(C(=O)C2CCCCC2)[C@@H]1C(=O)O [III-142]" assay_metric=Emax meas_value="< 100%"

## Input Provide one value: measured Emax of CC(C)(C)[C@@H]1[C@@H](NCc2cc(C(F)(F)F)cnc2N)[C@@H](c2ccccc2)N(C(=O)C2CCCCC2)[C@H]1C(=O)O (racemic) [III-74]
## Output < 100%

## Input Please supply the value of reported Emax for the item COc1ccc(C(C)(C)C)cc1CN[C@H]1[C@H](C(C)(C)C)[C@@H](C(=O)O)N(C(=O)C(C)Oc2cccc(C)c2C)[C@H]1c1ccccc1 (stereo partly drawn) [II-323]
## Output 100 to 200%

## Input Fill in Emax for record COc1ncc(-c2ccc(F)cc2F)cc1CN[C@H]1[C@H](C(C)(C)C)[C@@H](C(=O)O)N(C(=O)C2CCCCC2)[C@H]1c1ccccc1 [II-344]
## Output 100 to 200%

## Input For COc1ncc(C(F)(F)F)cc1CN[C@H]1[C@H](C(C)(C)C)[C@@H](C(=O)O)N(C(=O)[C@H](C)OC)[C@H]1c1ccccc1C(C)C [II-590] , write its Emax.
## Output 100 to 200%

## Input Identify measured Emax associated with COc1ncc(-c2ccccc2F)cc1CN[C@H]1[C@H](C(C)(C)C)[C@@H](C(=O)O)N(C(=O)C2CCCCC2)[C@H]1c1ccccc1F [II-424]
## Output 100 to 200%

## Input # return recorded Emax for input COc1ccc(C(C)(C)C)cc1CN[C@H]1[C@H](C(C)(C)C)[C@@H](C(=O)O)N(C(=O)[C@H](C)[C@@H]2CCCCO2)[C@H]1c1ccccc1 (relative stereo) [II-454]
## Output 100 to 200%

---

Biological target: F508delCFTR (Homo sapiens, UniProt P13569, DEL508-508)
Construct: expressed in transfected cells; host or cells: CFBE41o- human lung-derived epithelial cells (CFBE4lo-F508delCFTR-HRP), doxycycline-inducible
Experiment: Cell Surface Expression-Horse Radish Peroxidase (CSE-HRP) Assay;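 as to Maximum % activity (without co-corrector): percent of the 2 µM on-plate positive control corrector response above DMSO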
Type: cell-based
Details: without co-corrector; maximum at any tested concentration, normalized to on-plate positive control; read-out: Maximum % activity (without co-corrector)
assay_metric: Emax

molecule="CO[C@@H]1CCC[C@@H](C(=O)N2[C@H](c3ccccc3)[C@H](Nc3cc(C(F)(F)F)cc(C)n3)[C@@H](C(C)(C)C)[C@@H]2C(=O)O)C1 (racemic)" meas_value="< 100%"

## Input Entry COc1ccc(Cl)cc1CN[C@@H]1[C@@H](C(C)(C)C)[C@H](C(=O)O)N(C(=O)OC(C)C)[C@@H]1c1ccccc1 (racemic) needs its Emax filled in; supply it.
## Output > 200%

## Input Report measured Emax; entry is "COc1ccc(C(C)(C)C)cc1CN[C@H]1[C@H](C(C)(C)C)[C@@H](C(=O)O)N(C(=O)[C@H]2COc3ccccc3O2)[C@H]1c1ccccc1"
## Output > 200%

## Input Supply Emax value. Item: "COc1ccc(C2(C#N)CCC2)cc1CN[C@H]1[C@H](C(C)(C)C)[C@@H](C(=O)O)N(C(=O)C2CCCCC2)[C@H]1c1ccccc1"
## Output 100 to 200%
